Hey, just so you know, these numbers are from patent US20230096766A1.

# procedure_text: in vitro
# conditions: human, Caco-2, Caco-2 (membrane permeability)
*1 amine or outer side, *2 acyl side, *3 side chain or, on linkers, in order; H or OH if unused. Where a SMILES comes first, the peptide text is derived from it. Bridges are numbered along the chain shown (N, C = ends). [ ]: non-standard residue; d: D form. The star is where a group is joined. X12 = O=C([C@H](CCCC(O)C(F)(F)F)N[*:1])[*:2]; NMeF = CN[C@@H](Cc1ccccc1)C(=O)O; NMeL = CN[C@@H](CC(C)C)C(=O)O; NMeAbu = CC[C@H](NC)C(=O)O; Piperidide = C1CCN(*)CC1; Sar = CNCC(=O)O; tBu = CC(C)(C)*
measure: Papp (×10⁻⁶ cm/s)
A number alone suffices; assume ×10⁻⁶ cm/s.

Query: Value lookup for Papp; key = CC[C@H]1C(=O)N[C@@H](COC(C)(C)C)C(=O)N(C)[C@@H](Cc2ccccc2)C(=O)N(C)[C@@H](CC(C)C)C(=O)N[C@H](C(=O)N2CCCCC2)CC(=O)N[C@H](CC(C)C)C(=O)N(C)[C@@H](Cc2ccccc2)C(=O)N[C@@H](CC(C)C)C(=O)N(C)[C@@H](CC)C(=O)N[C@@H](CCCC(O)C(F)(F)F)C(=O)N(C)CC(=O)N1C (stereo partly drawn) [Compound D10] ([dL][NMeF]L[NMeAbu][X12][Sar][NMeAbu]S(tBu)[NMeF][NMeL]D-Piperidide; lactam N-11)
Result: 0.81

* * *

# procedure_text: Membrane permeability test of cyclic peptides (Caco-2, modified/improved method of WO 2018/124162)
# conditions: human, Caco-2, Caco-2 (cm/sec), membrane permeability of cyclic peptides, Caco-2
Where a SMILES comes first, the peptide text is derived from it. Bridges are numbered along the chain shown (N, C = ends). [ ]: non-standard residue; d: D form. The star is where a group is joined. ξ: configuration not given here. CH2(1,2,4-oxadiazolon-3-yl) = O=c1[nH]c(C*)no1; NMePhe(3-Cl) = CN[C@@H](Cc1cccc(Cl)c1)C(=O)O; NMeF = CN[C@@H](Cc1ccccc1)C(=O)O; NMeL = CN[C@@H](CC(C)C)C(=O)O; Piperidide = C1CCN(*)CC1; NBuGly = CCCCNCC(=O)O; ξS = NC(CO)C(=O)O; Sar = CNCC(=O)O; tBu = CC(C)(C)*
measure: Papp (×10⁻⁶ cm/s)
A number alone suffices; assume ×10⁻⁶ cm/s.

Query: Value lookup for Papp; key = CCCCN1CC(=O)N(C)[C@@H](CC(C)C)C(=O)N[C@@H](COC(C)(C)C)C(=O)N(C)[C@@H](CC(C)C)C(=O)N(C)[C@@H](CC(C)C)C(=O)N[C@H](C(=O)N2CCCCC2)CC(=O)N[C@H](CC(C)C)C(=O)N(C)[C@@H](Cc2ccccc2)C(=O)NC(COCc2noc(=O)[nH]2)C(=O)N(C)[C@@H](CC(C)C)C(=O)N[C@@H]([C@@H](C)O)C1=O (stereo partly drawn) [AP45] ([dL][NMeF][ξS](CH2(1,2,4-oxadiazolon-3-yl))[NMeL]T[NBuGly][NMeL]S(tBu)[NMeL][NMeL]D-Piperidide; lactam N-11)
Result: 1.4

Query: Value lookup for Papp; key = CCCCN1CC(=O)N(C)[C@@H](Cc2cccc(Cl)c2)C(=O)N(C)[C@@H](CC(C)C)C(=O)N[C@@H]([C@@H](C)CC)C(=O)N(C)[C@@H](CC(C)C)C(=O)N[C@H](C(=O)N2CCCCC2)CC(=O)N(C)CC(=O)N(C)[C@@H](CC(C)C)C(=O)NC(COCc2noc(=O)[nH]2)C(=O)N(C)[C@@H](CC(C)C)C(=O)N[C@@H]([C@@H](C)O)C1=O (stereo partly drawn) [AP49] ([Sar][NMeL][ξS](CH2(1,2,4-oxadiazolon-3-yl))[NMeL]T[NBuGly][NMePhe(3-Cl)][NMeL]I[NMeL]D-Piperidide; lactam N-11)
Result: 0.33
